Recorded measurements of CC50 at 3 days, one per entry
# experiment: Compound induced cellular toxicity in HepG2 cells (ATPlite 1 Step)
# Assay type: cell-based
# condition_context: human, three days, 50% reduction of total ATP levels vs no drug controls

A selection of reference data follows.
>>> print(df.to_string())
                                   compound   result
0  COCCCOc1cc2c(cc1-c1cccc(F)c1F)-c1cc(=O)c(C(=O)O)cn1[C@H](C(C)(C)C)C2 [Example 23]  > 25 µM
1  CC(C)(C)[C@@H]1Cc2c(cc(-c3cccs3)c3c2CCO3)-c2cc(=O)c(C(=O)O)cn21 [Example 86]  < 10 µM

Query block: Which CC50 at 3 days value belongs to CC(C)(C)[C@@H]1Cc2c(cc(-c3ccccc3)c3c2CCO3)-c2cc(=O)c(C(=O)O)cn21 [Example 67] ?
Result block: < 10 µM

----------
Overview of recorded CC50 at 3 days for various compounds
# experiment: Compound induced cellular toxicity in HepG2 cells (ATPlite 1 Step)
# Format: cell-based
# condition_context: human, three days, 50% reduction of total ATP levels vs no drug controls

>>> df
                                   compound       result
0  COCCCOc1cc2c(cc1-c1ccccc1)-c1cc(=O)c(C(=O)O)cn1[C@H](C(C)(C)C)C2 [Example 3]      < 10 µM
1  COCCCOc1cc2c(cc1-c1cnco1)-c1cc(=O)c(C(=O)O)cn1[C@H]1[C@@H]2CCC1(C)C [Example 63]  10 to 25 µM

Query block: Can you share its CC50 at 3 days? I mean this compound: COCCCOc1cc2c(cc1-c1cc[nH]c1)-c1cc(=O)c(C(=O)O)cn1[C@H](C(C)(C)C)C2 [Example 11]
Result block: > 25 µM

Query block: And what about the compound COCCCOc1cc2c(cc1-c1ocnc1C(F)(F)F)-c1cc(=O)c(C(=O)O)cn1[C@H](C(C)(C)C)C2 [Example 27] ?
Result block: > 25 µM

----------
# experiment: Compound induced cellular toxicity in HepG2 cells (ATPlite 1 Step)
# Format: cell-based
# condition_context: human, three days, 50% reduction of total ATP levels vs no drug controls
value_type: CC50 at 3 days

Query block: // lookup CC50 at 3 days for "CC(C)(C)[C@@H]1Cc2c(cc(-c3ccc(F)c(F)c3)c3c2CCO3)-c2cc(=O)c(C(=O)O)cn21"
Result block: < 10 µM

Query block: Next: "COCCCOc1cc2c(cc1-c1cccc(F)c1)-c1cc(=O)c(C(=O)O)cn1[C@H](C(C)(C)C)C2"
Result block: 10 to 25 µM

Query block: Moving on to "COCCCOc1cc2c(cc1-c1ccsc1)-c1cc(=O)c(C(=O)O)cn1[C@H](C(C)(C)C)C2"
Result block: > 25 µM

Query block: Could you do the same for "CC(C)(C)[C@@H]1Cc2c(cc(-c3ccoc3)c3c2CCO3)-c2cc(=O)c(C(=O)O)cn21" , please?
Result block: < 10 µM

Query block: Lookup "COCCCOc1cc2c(cc1-c1cccc(OC)c1)-c1cc(=O)c(C(=O)O)cn1[C@H](C(C)(C)C)C2"
Result block: 10 to 25 µM

----------
# experiment: Compound induced cellular toxicity in HepG2 cells (ATPlite 1 Step)
# Assay type: cell-based
# condition_context: human, three days, 50% reduction of total ATP levels vs no drug controls
value_type: CC50 at 3 days

>>> print(df.to_string())
                                 cpd_smiles      value_type   result
0  COCCCOc1cc2c(cc1-c1nc(C(F)(F)F)co1)-c1cc(=O)c(C(=O)O)cn1[C@H](C(C)(C)C)C2  CC50 at 3 days  > 25 µM
1  CC(C)(C)[C@@H]1Cc2c(cc(-c3ccsc3)c3c2CCO3)-c2cc(=O)c(C(=O)O)cn21  CC50 at 3 days  < 10 µM

Query block: Returns the measured CC50 at 3 days for the input compound. Input: "COCCCOc1cc2c(cc1-c1ccc3c(c1)OCCN3C)-c1cc(=O)c(C(=O)O)cn1[C@H](C(C)(C)C)C2"
Result block: > 25 µM

Query block: Try this compound next: "COCCCOc1cc2c(cc1-c1ccc(OC)cc1)-c1cc(=O)c(C(=O)O)cn1[C@H](C(C)(C)C)C2"
Result block: 10 to 25 µM

Query block: Please answer likewise for "CC(C)(C)[C@@H]1Cc2c(cc(-c3ccccc3F)c3c2CCO3)-c2cc(=O)c(C(=O)O)cn21"
Result block: < 10 µM

Query block: Follow-up item: "COCCCOc1cc2c(cc1-c1ccoc1)-c1cc(=O)c(C(=O)O)cn1[C@H]1[C@@H]2CCC1(C)C"
Result block: 10 to 25 µM

Query block: And for "COCCCOc1cc2c(cc1-c1ccnn1C)-c1cc(=O)c(C(=O)O)cn1[C@H](C(C)(C)C)C2" ?
Result block: > 25 µM

Query block: Could you do the same for "COCCCOc1cc2c(cc1-c1nc3ccccc3o1)-c1cc(=O)c(C(=O)O)cn1[C@H](C(C)(C)C)C2" , please?
Result block: > 25 µM

Query block: Field entry: "COCCCOc1cc2c(cc1-c1cc3ccccc3[nH]1)-c1cc(=O)c(C(=O)O)cn1[C@H](C(C)(C)C)C2"
Result block: > 25 µM

Query block: // query: "COCCCOc1cc2c(cc1-c1cnco1)-c1cc(=O)c(C(=O)O)cn1[C@H](C(C)(C)C)C2"
Result block: > 25 µM

----------
# experiment: Compound induced cellular toxicity in HepG2 cells (ATPlite 1 Step)
# Assay type: cell-based
# condition_context: human, three days, 50% reduction of total ATP levels vs no drug controls
Recorded CC50 at 3 days by entry

Below are worked cases with known answers.
                                 cpd_smiles      value_type       result
0  COCCCOc1cc2c(cc1-c1ccc(F)cc1)-c1cc(=O)c(C(=O)O)cn1[C@H](C(C)(C)C)C2  CC50 at 3 days  10 to 25 µM
1  COCCCOc1cc2c(cc1-c1ccco1)-c1cc(=O)c(C(=O)O)cn1[C@H](C(C)(C)C)C2  CC50 at 3 days      > 25 µM
2  COCCCOc1cc2c(cc1-c1ccc(F)cc1F)-c1cc(=O)c(C(=O)O)cn1[C@H](C(C)(C)C)C2  CC50 at 3 days      > 25 µM
3  COCCCOc1cc2c(cc1-c1ccc(F)cc1)-c1cc(=O)c(C(=O)O)cn1[C@H]1[C@@H]2CCC1(C)C  CC50 at 3 days  10 to 25 µM

Query block: Name the recorded CC50 at 3 days for "COCCCOc1cc2c(cc1C1=CCCCO1)-c1cc(=O)c(C(=O)O)cn1[C@H](C(C)(C)C)C2" .
Result block: > 25 µM

Query block: Likewise for "CC(C)(C)[C@@H]1Cc2c(cc(-c3cccc(F)c3)c3c2CCO3)-c2cc(=O)c(C(=O)O)cn21" ?
Result block: < 10 µM

Query block: Proceed to "COc1cccc(-c2cc3c(c4c2OCC4)C[C@@H](C(C)(C)C)n2cc(C(=O)O)c(=O)cc2-3)c1"
Result block: < 10 µM

----------
Listing: CC50 at 3 days of selected compounds
# experiment: Compound induced cellular toxicity in HepG2 cells (ATPlite 1 Step)
# Format: cell-based
# condition_context: human, three days, 50% reduction of total ATP levels vs no drug controls

Example entries begin here.
>>> df
                                 cpd_smiles      value_type   result
0  COCCCOc1cc2c(cc1-c1cnc3ccccc3c1)-c1cc(=O)c(C(=O)O)cn1[C@H](C(C)(C)C)C2  CC50 at 3 days  > 25 µM
1  CC(C)[C@@H]1Cc2c(cc(-c3ccsc3)c3c2CCO3)-c2cc(=O)c(C(=O)O)cn21  CC50 at 3 days  < 10 µM

Continue with the compound presented below.
Query block: // lookup CC50 at 3 days for "COCCCOc1cc2c(cc1-n1cccn1)-c1cc(=O)c(C(=O)O)cn1[C@H](C(C)(C)C)C2"
Result block: > 25 µM
